Target: Rho-associated protein kinase 2 (Homo sapiens, UniProt O75116)
Sequence (O75116 whole entry, the tested form may be a part): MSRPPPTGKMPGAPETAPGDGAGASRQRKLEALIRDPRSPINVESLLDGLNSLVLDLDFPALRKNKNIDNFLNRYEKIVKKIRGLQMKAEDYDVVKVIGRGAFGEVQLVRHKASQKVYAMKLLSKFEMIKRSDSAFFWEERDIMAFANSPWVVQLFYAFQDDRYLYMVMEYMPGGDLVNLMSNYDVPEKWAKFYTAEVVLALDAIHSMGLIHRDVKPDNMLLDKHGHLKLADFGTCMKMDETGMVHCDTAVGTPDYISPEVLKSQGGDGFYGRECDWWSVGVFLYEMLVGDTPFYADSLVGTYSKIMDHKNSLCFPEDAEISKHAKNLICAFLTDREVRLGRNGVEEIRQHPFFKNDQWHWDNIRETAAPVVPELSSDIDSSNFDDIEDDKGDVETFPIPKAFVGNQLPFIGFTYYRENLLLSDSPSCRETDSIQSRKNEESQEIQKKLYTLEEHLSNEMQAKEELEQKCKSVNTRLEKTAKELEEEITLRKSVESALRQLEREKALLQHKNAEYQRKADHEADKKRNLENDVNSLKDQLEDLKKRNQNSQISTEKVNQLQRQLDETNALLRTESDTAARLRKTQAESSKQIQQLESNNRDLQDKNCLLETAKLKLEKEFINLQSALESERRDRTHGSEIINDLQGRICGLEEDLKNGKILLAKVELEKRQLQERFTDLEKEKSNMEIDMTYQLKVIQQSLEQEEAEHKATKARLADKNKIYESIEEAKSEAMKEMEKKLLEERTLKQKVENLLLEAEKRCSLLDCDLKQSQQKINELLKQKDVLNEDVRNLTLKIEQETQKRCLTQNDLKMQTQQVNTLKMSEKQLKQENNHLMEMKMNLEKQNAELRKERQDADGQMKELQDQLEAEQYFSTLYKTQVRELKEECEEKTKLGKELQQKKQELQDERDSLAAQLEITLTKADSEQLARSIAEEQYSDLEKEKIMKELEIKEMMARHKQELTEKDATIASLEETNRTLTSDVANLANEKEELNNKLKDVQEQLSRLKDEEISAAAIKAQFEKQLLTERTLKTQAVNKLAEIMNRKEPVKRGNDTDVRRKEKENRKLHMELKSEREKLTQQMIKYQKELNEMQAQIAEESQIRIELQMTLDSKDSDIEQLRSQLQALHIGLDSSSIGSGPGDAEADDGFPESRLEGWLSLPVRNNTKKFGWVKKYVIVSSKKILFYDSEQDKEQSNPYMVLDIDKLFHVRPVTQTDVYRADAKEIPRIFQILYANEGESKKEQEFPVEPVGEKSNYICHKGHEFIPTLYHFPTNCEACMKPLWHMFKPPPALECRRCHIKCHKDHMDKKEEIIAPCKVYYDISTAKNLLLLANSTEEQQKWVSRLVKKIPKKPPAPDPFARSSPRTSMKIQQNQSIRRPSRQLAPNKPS
Assay: Inhibition of recombinant human GST-tagged ROCK2 catalytic domain expressed in baculovirus expression system using serine/threonine-13 peptide as substrate incubated for 60 mins in presence of ATP by Z'-LYTE assay
pIC50: −log10 of the molar value.
measurement_type: pIC50

1) C[C@@H]1C[C@H]1C(=O)N1CCN(c2cnc(C#N)c(-c3cnn(C)c3)n2)C[C@H]1C : < 4.00

###

Biological target: Protein-tyrosine kinase 2-beta (Homo sapiens, UniProt Q14289)
Assay: Inhibition of recombinant full length human N-terminal GST-tagged PTK2B cytoplasmic domain expressed in baculovirus expression system using tyr01 peptide as substrate incubated for 60 mins in presence of ATP by Z'-LYTE assay
measurement_type: IC50

1. C[C@@H]1C[C@H]1C(=O)N1CCN(c2cnc(C#N)c(-c3cnn(C)c3)n2)C[C@H]1C : > 100 µM

###

Biological target: Serine/threonine-protein kinase PAK 1 (Homo sapiens, UniProt Q13153)
Sequence (Q13153 whole entry): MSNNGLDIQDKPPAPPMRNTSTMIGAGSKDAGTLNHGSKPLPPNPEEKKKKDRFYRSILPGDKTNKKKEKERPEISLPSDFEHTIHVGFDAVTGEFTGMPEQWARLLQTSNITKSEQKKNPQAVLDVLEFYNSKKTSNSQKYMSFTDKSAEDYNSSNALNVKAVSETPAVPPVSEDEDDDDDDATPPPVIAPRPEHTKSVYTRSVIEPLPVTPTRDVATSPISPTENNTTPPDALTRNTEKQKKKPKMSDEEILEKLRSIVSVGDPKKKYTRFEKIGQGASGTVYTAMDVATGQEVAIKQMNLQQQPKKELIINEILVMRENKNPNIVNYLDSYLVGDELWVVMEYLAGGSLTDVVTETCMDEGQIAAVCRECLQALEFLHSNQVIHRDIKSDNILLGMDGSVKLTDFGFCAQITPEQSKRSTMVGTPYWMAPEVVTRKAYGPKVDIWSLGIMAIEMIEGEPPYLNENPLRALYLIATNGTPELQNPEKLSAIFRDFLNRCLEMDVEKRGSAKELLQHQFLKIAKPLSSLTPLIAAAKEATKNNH
Assay: Inhibition of recombinant full length human GST-tagged PAK1 expressed in baculovirus expression system using serine/threonine-19 peptide as substrate incubated for 60 mins in presence of ATP by Z'-LYTE assay
measurement_type: IC50

1) C[C@@H]1C[C@H]1C(=O)N1CCN(c2cnc(C#N)c(-c3cnn(C)c3)n2)C[C@H]1C : > 100 µM

###

Molecular target: Cytochrome P450 2D6 (Homo sapiens)
measurement_type: IC50

1) C[C@@H]1C[C@H]1C(=O)N1CCN(c2cnc(C#N)c(-c3cnn(C)c3)n2)C[C@H]1C : > 50 µM

###

Biological target: Epidermal growth factor receptor (Homo sapiens, UniProt P00533, L858R)
Sequence (P00533 25-1210 L858R limits assumed): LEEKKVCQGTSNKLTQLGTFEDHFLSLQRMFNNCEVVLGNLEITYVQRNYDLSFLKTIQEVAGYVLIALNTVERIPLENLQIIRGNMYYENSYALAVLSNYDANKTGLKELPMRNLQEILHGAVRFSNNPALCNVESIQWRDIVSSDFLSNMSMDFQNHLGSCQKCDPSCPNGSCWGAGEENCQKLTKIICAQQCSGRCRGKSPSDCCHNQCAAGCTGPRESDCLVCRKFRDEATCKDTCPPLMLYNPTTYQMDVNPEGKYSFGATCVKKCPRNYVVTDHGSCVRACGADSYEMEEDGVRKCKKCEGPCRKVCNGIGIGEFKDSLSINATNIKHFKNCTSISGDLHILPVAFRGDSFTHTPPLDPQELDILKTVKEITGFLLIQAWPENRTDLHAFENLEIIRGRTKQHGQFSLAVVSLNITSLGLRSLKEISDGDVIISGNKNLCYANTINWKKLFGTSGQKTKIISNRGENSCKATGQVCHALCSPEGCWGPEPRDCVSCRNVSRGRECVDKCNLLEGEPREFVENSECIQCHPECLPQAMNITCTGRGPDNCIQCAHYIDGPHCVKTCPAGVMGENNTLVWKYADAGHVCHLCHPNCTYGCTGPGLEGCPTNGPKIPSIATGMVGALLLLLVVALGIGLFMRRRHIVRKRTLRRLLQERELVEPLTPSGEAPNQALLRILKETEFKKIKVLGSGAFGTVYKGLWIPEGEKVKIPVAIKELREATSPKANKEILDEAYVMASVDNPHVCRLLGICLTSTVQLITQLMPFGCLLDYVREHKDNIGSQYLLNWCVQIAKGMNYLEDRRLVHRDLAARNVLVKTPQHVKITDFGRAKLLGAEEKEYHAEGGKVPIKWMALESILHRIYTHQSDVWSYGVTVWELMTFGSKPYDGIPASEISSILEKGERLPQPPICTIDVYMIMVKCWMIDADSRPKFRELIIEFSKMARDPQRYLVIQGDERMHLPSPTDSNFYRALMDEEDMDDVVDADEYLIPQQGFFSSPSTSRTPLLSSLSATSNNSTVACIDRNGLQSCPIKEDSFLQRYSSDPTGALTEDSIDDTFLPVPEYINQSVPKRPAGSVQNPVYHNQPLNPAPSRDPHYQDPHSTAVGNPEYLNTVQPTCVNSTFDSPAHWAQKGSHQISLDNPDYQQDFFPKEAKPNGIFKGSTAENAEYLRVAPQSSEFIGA
Assay: Inhibition of human recombinant GST-tagged EGFR L858R mutant expressed in baculovirus expression system using tyrosine 4 peptide as substrate after 60 mins in presence of ATP FRET based Z'-LYTE assay
measurement_type: IC50

1) C[C@@H]1C[C@H]1C(=O)N1CCN(c2cnc(C#N)c(-c3cnn(C)c3)n2)C[C@H]1C : > 100 µM

###

Molecular target: Serine/threonine-protein kinase PAK 3 (Homo sapiens, UniProt O75914)
Assay: Inhibition of recombinant full length human His-tagged PAK3 expressed in baculovirus expression system using serine/threonine-20 peptide as substrate incubated for 60 mins in presence of ATP by Z'-LYTE assay
pIC50: −log10 of the molar value.
measurement_type: pIC50

1. C[C@@H]1C[C@H]1C(=O)N1CCN(c2cnc(C#N)c(-c3cnn(C)c3)n2)C[C@H]1C : < 4.00

###

Species: Homo sapiens
Assay: Selectivity index, ratio IC50 for inhibition of recombinant human full-length N-terminal His6-tagged p110alpha/untagged full-length p85alpha expressed in baculovirus infected Sf21 cells to ratio IC50 for inhibition of recombinant human full-length N-terminal GST-tagged p110delta/untagged full-length p85alpha expressed in baculovirus infected Sf21 cells
Each item that follows carries a reported Ratio IC50.
measurement_type: Ratio IC50

1) C[C@@H]1CN(c2nc(-c3cnn(C)c3)ncc2C#N)CCN1C(=O)C1(C)CC1 : > 12
2) Cn1cc(-c2ncc(C#N)c(N3CC4CCC(C3)N4c3cccc(F)c3)n2)cn1 : > 12
3) Cn1cc(-c2ncc(C#N)c(N3CCN(c4cccc(F)c4)C(C)(C)C3)n2)cn1 : > 8
4) CC1CC1C(=O)N1CCN(c2nc(-c3cnn(C)c3)ncc2C#N)C[C@H]1C (mixture of isomers) : > 159
5) Cn1cc(-c2ncc(C#N)c(N3C[C@@H]4C[C@H]3CN4S(=O)(=O)C3CC3)n2)cn1 : > 10

###

Molecular target: Serine/threonine-protein kinase TBK1 (Homo sapiens, UniProt Q9UHD2)
Sequence (Q9UHD2 whole entry): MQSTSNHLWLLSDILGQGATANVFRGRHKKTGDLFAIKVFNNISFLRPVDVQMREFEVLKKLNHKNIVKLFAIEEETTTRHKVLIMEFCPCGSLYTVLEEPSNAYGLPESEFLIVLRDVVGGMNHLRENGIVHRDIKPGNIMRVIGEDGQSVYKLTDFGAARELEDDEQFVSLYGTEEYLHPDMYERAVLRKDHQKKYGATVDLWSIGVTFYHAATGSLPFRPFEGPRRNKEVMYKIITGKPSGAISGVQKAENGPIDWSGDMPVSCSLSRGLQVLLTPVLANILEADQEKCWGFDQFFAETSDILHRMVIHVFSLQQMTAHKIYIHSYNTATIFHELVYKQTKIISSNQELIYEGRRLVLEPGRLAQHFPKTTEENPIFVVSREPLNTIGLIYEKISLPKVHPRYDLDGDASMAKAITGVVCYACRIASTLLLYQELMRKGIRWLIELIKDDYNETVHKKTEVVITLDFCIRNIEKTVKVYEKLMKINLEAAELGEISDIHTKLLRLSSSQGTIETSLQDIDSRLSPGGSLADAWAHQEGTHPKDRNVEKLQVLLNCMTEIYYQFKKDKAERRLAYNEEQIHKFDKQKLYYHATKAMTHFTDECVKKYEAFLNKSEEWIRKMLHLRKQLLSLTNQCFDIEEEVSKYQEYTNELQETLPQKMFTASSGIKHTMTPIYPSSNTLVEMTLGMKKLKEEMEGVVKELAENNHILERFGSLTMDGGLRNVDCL
Assay: Inhibition of recombinant full length human GST-tagged TBK1 expressed in insect expression system using serine/threonine-5 peptide as substrate incubated for 60 mins in presence of ATP by Z'-LYTE assay
pIC50: −log10 of the molar value.
measurement_type: pIC50

1) C[C@@H]1C[C@H]1C(=O)N1CCN(c2cnc(C#N)c(-c3cnn(C)c3)n2)C[C@H]1C : < 4.00

###

Biological target: Serine/threonine-protein kinase pim-2 (Homo sapiens)
Experiment: Inhibition of recombinant full length GST-tagged human PIM2 expressed in baculovirus expression system using Ser/Thr 07 as substrate after 1 hr in presence of ATP by Z'-LYTE assay
pIC50: −log10 of the molar value.
measurement_type: pIC50

1) C[C@@H]1C[C@H]1C(=O)N1CCN(c2cnc(C#N)c(-c3cnn(C)c3)n2)C[C@H]1C : < 4.00

###

Molecular target: Angiopoietin-1 receptor (Homo sapiens, UniProt Q02763)
Assay: Inhibition of recombinant human GST-tagged TIE2 (817 to 1101 residues) expressed in baculovirus expression system using tyrosine-5 peptide as substrate incubated for 60 mins in presence of ATP by Z'-LYTE assay
measurement_type: IC50

1) C[C@@H]1C[C@H]1C(=O)N1CCN(c2cnc(C#N)c(-c3cnn(C)c3)n2)C[C@H]1C : > 100 µM

###

Biological target: Dual specificity protein kinase CLK3 (Homo sapiens)
Assay: Inhibition of recombinant full length human GST-tagged CLK3 expressed in baculovirus expression system using serine/threonine-18 peptide as substrate incubated for 60 mins in presence of ATP by Z'-LYTE assay
measurement_type: IC50

1) C[C@@H]1C[C@H]1C(=O)N1CCN(c2cnc(C#N)c(-c3cnn(C)c3)n2)C[C@H]1C : > 100 µM

###

Molecular target: Phosphatidylinositol 4,5-bisphosphate 3-kinase catalytic subunit delta isoform (Homo sapiens, UniProt O00329)
Experiment: Inhibition of PI3K delta in human whole blood assessed as inhibition of anti-IgE-stimulated CysLt release in basophils preincubated for 30 mins followed by anti-IgE stimulation and measured after 20 mins
Assay type: tissue-based
The recorded IC50 of each item maps onto one of these classes: low bin = under 300 nM, mid bin = from 300 nM up to 2000 nM, high bin = 2000 nM and over

1. C[C@@H]1CN(c2nc(-c3cnn(C)c3)ncc2C#N)CCN1C(=O)C1CC1 : mid bin
2. C[C@@H]1C[C@H]1C(=O)N1CCN(c2cnc(C#N)c(-c3cnn(C)c3)n2)C[C@H]1C : low bin
3. C[C@@H]1CN(c2nc(-c3cnn(C)c3)ncc2C#N)CCN1C(=O)C1CCC1 : mid bin
4. CCC(=O)N1CCN(c2nc(-c3cnn(C)c3)ncc2C#N)C[C@H]1C : high bin
5. C[C@@H]1CN(c2ncc(C#N)c(-c3cnn(C)c3)n2)CCN1C(=O)C1CC1 : mid bin
6. Cn1cc(-c2ncc(C#N)c(N3C[C@@H]4C[C@H]3CN4CC3CC3)n2)cn1 : high bin
7. C[C@@H]1CN(c2nc(-c3cnn(C)c3)cnc2C#N)CCN1C(=O)C1CC1 : mid bin
8. C[C@@H]1C[C@H]1C(=O)N1CCN(c2nc(-c3cnn(C)c3)ncc2C#N)C[C@H]1C : low bin
9. C[C@@H]1CN(c2cnc(C#N)c(-c3cnn(C)c3)n2)CCN1C(=O)C1CC1 : low bin
10. C[C@@H]1CN(c2nc(-c3cnn(C)c3)ncc2C#N)CCN1C(=O)C1(C)CC1 : high bin

###

Target: PI3-kinase p110-delta/p85-alpha (Homo sapiens, UniProt O00329)
Sequence (P27986 whole entry): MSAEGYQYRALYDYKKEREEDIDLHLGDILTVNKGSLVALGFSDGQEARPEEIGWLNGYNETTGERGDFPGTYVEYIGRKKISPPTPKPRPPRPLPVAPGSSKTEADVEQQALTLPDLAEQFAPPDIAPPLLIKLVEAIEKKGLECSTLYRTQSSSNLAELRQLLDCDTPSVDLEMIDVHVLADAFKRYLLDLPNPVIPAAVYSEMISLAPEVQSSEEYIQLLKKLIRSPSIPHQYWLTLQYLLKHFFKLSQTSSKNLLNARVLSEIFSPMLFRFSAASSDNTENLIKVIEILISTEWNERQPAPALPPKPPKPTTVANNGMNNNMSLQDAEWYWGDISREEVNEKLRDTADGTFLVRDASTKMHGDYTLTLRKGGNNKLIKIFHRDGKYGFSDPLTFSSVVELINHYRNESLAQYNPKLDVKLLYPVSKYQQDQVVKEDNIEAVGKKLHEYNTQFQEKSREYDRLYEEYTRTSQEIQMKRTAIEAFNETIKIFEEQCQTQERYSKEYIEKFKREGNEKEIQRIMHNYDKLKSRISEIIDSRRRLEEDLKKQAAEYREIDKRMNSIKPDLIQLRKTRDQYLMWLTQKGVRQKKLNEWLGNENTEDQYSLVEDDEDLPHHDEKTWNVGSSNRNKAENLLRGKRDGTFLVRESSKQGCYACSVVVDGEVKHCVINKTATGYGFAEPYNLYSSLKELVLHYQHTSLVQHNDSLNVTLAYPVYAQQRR
Sequence (O00329 whole entry): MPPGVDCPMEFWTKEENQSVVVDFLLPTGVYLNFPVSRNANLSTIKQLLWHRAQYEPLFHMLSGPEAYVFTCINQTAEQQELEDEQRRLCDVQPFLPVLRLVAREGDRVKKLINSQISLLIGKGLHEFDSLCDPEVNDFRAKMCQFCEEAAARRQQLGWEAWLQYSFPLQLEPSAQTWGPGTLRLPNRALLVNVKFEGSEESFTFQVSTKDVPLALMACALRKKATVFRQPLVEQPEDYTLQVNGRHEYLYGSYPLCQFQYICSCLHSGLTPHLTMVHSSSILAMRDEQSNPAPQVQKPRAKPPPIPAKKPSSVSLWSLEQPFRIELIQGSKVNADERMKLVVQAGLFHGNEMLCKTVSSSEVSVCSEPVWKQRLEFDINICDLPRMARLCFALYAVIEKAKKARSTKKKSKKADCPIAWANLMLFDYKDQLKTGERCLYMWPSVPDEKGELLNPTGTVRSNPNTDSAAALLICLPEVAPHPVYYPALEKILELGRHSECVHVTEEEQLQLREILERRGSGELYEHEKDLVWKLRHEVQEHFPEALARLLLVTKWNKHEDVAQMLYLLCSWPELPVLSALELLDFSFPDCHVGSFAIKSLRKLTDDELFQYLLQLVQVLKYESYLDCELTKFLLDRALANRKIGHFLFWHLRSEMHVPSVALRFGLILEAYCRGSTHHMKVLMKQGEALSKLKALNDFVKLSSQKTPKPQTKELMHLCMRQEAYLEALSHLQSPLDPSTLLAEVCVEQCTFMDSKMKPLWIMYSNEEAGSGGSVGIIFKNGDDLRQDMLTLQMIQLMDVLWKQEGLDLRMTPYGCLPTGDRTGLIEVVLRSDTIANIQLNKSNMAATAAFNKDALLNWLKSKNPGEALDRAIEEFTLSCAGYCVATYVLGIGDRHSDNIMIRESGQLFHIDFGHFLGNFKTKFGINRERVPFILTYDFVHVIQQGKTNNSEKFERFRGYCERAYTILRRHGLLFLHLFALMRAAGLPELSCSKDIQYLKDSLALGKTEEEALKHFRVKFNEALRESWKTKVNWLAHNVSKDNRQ
Assay: Inhibition of recombinant human full-length N-terminal GST-tagged p110delta/untagged full-length p85alpha expressed in baculovirus infected Sf21 cells using PIP2 as substrate preincubated for 15 mins followed by substrate addition and measured after 1 hr by HTRF assay
pIC50: −log10 of the molar value.
measurement_type: pIC50

1) C[C@@H]1CN(c2nc(-c3cnn(C)c3)ncc2C#N)CCN1C(=O)C1CC1 : 6.97
2) Cn1cc(-c2ncc(C#N)c(N3C[C@@H]4C[C@H]3CN4CC3CC3)n2)cn1 : 5.85
3) Cn1cc(-c2ncc(C#N)c(N3CC4CCC(C3)N4c3cccc(F)c3)n2)cn1 : 5.99
4) Cn1cc(-c2ncc(C#N)c(N3C[C@@H]4C[C@H]3CN4c3cccc(F)c3)n2)cn1 : 7.51
5) C[C@@H]1CN(c2nc(-c3cnn(C)c3)cnc2C#N)CCN1C(=O)C1CC1 : 6.73
6) N#Cc1cnc(-c2cccnc2)nc1N1C[C@@H]2C[C@H]1CN2c1cccc(F)c1 : 6.44

Hello, the source for this data is ChEMBL document CHEMBL4602617, in case you need it.
